Parameter: pKd. Scope: all listed entries.
Molecular target: T1, human DLL3 antigen (human, UniProt Q9NYJ7 27-492)
T1 chain: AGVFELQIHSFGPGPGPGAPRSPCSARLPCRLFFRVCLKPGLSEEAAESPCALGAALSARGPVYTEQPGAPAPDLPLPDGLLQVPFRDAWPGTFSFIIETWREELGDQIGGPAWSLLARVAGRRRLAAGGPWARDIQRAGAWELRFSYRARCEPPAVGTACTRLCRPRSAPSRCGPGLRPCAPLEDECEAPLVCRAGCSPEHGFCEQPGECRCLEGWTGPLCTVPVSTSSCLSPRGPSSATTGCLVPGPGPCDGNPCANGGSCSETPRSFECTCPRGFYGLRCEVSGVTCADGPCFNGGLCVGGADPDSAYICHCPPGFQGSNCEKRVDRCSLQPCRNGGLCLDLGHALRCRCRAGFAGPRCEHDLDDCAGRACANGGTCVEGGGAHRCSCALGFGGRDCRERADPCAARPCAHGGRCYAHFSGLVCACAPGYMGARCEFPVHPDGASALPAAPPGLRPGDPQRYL
Assay: Biacore SPR
Field pKd (float): negative decimal logarithm of the concentration in molar.

Below are worked cases with known answers.
1) SC16.65 (antibody, V domains shown) VH: QVTLKESGPGILQPSQTLSLTCSFSGFSLSTSGMGVGWIRQPSGKGLEWLALIWWDDVKRYNPALKSRLTISKDASSSQVFLKIASVDTADTATYYCARIASYDYDVVYAMDYWGQGTSVSVSS VL: QIVLTQSPALMSASPGEKVTMTCSVTSSVSYMYWYQQKPRSSPKPWIYLTSNLASGVPARFSGSGSGTSYSLTISSVEAEDAATYYCQQWRNNPFTFGSGTKVEIK = 9.05
2) SC16.34 (antibody, V domains shown) VH: QIQLVQSGPELKRPGETVKISCKASGYTFTNYGMNWVKQAPGKGLKWMGWINTYTGDPTYADDFKGRFAFSLETSASTAYLQINNLKNEDTATYFCARIGGNSPSDYWGQGTSLTVSS VL: SIVMTQTPKFLLVSAGDRVTITCKASQSVSNDVAWYQQKPGQSPKLLIYYASNRYSGVPDRFTGSGYGTDFTFTISTVQAEDLAVYFCQQDYSSPWTFGGGTKLEIK = 9.70

Turning now to a further binder:
Bench note: what pKd did SC16.25 (antibody, V domains shown) VH: QVTLKESGPGILQPSQTLSLTCSFSGFSLSTSGMGVGWIRQPSGEGLEWLTDIWWDDNKYYNPSLKSRLTISKDTSSNQVFLNITSVDTADTATYYCARRVNYYYDPYYAMDYWGQGTSVTVSS VL: QIVLTQSPAIMSASPGEKVTMTCSASSSVSYMHWYQQKSGTSPKRWIYDSSKLASGVPARFSGSGSGTSYSLTISSMEAEDAATYYCQQWSSNPLTFGAGTKLELK show? 9.70
